# Read-out: Plasminogen activator inhibitor-1 (PAI1), SERPINE1 (gene 5054)
# method: BSK_BE3C_PAI1: BioMAP Diversity Plus: BE3C Assay for Plasminogen activator inhibitor-1 (PAI1) Biomarker Activity (AID 2283037)
# assay conditions: primary human bronchial epithelial cells; actives raise or lower the signal
The source made the active and inactive calls. The calls were made as follows: active = hit-call score of the fitted dose curve at least 0.9, where 1 is the maximum; inactive = score below 0.9.
Assign a class; possible classes are active, inactive

Answered cases to consult:
>>> qualitative_label("CC(=O)OCC=C(C)CCC=C(C)CCC=C(C)C")
"active"
>>> qualitative_label("NC(=O)c1c(Cl)cccc1Cl")
"inactive"
>>> qualitative_label("c1ccc2c(c1)-c1ccc3ccc4cccc5cc-2c1c3c45")
"inactive"
>>> qualitative_label("O=C(O)C(F)(F)OC(F)(F)C(F)(F)OC(F)(F)C(F)(F)C(F)(F)C(F)(F)F")
"inactive"
>>> qualitative_label("CCCCCCCCCC(=O)OCC")
"inactive"
>>> qualitative_label("C=C1CC/C=C(\\C)CC[C@@H]2[C@@H]1CC2(C)C")
"inactive"

QUERY: How did this test come out for C=C(C)C(N)=O ?
RESULT: inactive

QUERY: Recorded test outcome, item O=S1(=O)CC(Cl)(Cl)C(Cl)(Cl)C1
RESULT: active

QUERY: Field: outcome | Entry: CC(C)(C)c1cccc(O)c1
RESULT: inactive

QUERY: Test call, this compound: C#C[C@]1(O)CC[C@H]2[C@@H]3CCc4cc(O)ccc4[C@H]3CC[C@@]21C
RESULT: inactive

QUERY: Outcome? COC(=O)c1ccc(C(=O)OC)cc1
RESULT: inactive

QUERY: What is the recorded call for this compound in the test? O=C(c1ccc(OCCN2CCCCC2)cc1)c1c(-c2ccc(O)cc2)sc2cc(O)ccc12
RESULT: active

QUERY: What outcome does the record of this test show for O=S(=O)(O)C(F)(F)C(F)(F)OC(F)(F)C(F)(F)F ?
RESULT: inactive

QUERY: Can you look up the reported call for CC1=CC(C)C(C=O)C(C)C1 (stereo not given) (tested in a mixture with another compound) for me?
RESULT: inactive

QUERY: How was CCCCN(CCO)CCO classified in this test?
RESULT: inactive

QUERY: Look up the recorded call for CC1(C)[C@H](C=C(Cl)Cl)[C@H]1C(=O)OCc1cccc(Oc2ccccc2)c1 in this test.
RESULT: inactive

QUERY: Short answer needed: outcome of this test for CC(C)Cc1ccc(C(C)C(=O)O)cc1 (stereo not given) ?
RESULT: inactive

* * *

# Read-out: Monocyte Chemoattractant Protein-1 (MCP1), CCL2 (gene 6347)
# method: BSK_CASM3C_MCP1: BioMAP Diversity Plus: CASM3C Assay for Monocyte Chemoattractant Protein-1 (MCP1) Biomarker Activity (AID 2283046);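 also: MCP-1 level quantified by ELISA 24 h after dosing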
# assay conditions: primary human coronary artery smooth muscle cells; actives raise or lower the signal
Calls of active or inactive are those of the source. How the source made its calls: active means hit-call score of the fitted dose curve at least 0.9, where 1 is the maximum; inactive means score below 0.9.
Write down the outcome that applies. Available outcomes: TRUE = active, FALSE = inactive

Reference set, count: 4
>>> qualitative_label("C=C(F)C(=O)OC(C(F)(F)F)C(F)(F)F")
"FALSE"
>>> qualitative_label("CC(=O)c1ccc(C)cc1")
"FALSE"
>>> qualitative_label("CCn1cc(C(=O)O)c(=O)c2ccc(C)nc21")
"FALSE"
>>> qualitative_label("CC(=O)CCC=C(C)CCC=C(C)C")
"FALSE"

QUERY: What was the test verdict on O=C(c1ccc(OCCN2CCCCC2)cc1)c1c(-c2ccc(O)cc2)sc2cc(O)ccc12 ?
RESULT: FALSE

QUERY: Per the records of this test, what outcome belongs to O=S(=O)(O)C(F)(F)C(F)(F)OC(F)(F)C(F)(F)F ?
RESULT: FALSE

QUERY: Just curious, what result did CCCCN(CCO)CCO get here?
RESULT: FALSE

QUERY: Would you mind telling me which call this test gave CC1=CC(C)C(C=O)C(C)C1 (centres undefined) (tested in a mixture with another compound) ?
RESULT: FALSE

QUERY: Outcome? CC(C)(C)c1cccc(O)c1
RESULT: FALSE

QUERY: // param item: OCC(F)(OC(F)(F)C(F)(OC(F)(F)C(F)(F)C(F)(F)F)C(F)(F)F)C(F)(F)F (centres undefined) ; yields the recorded call
RESULT: FALSE

QUERY: Would you mind telling me which call this test gave C[C@]12CC[C@@H]3c4ccc(O)cc4CC[C@H]3[C@@H]1CC[C@@H]2O ?
RESULT: FALSE

QUERY: Which outcome was entered for the compound C=C(C)C(N)=O in this test?
RESULT: FALSE

QUERY: Record lookup: outcome of this test for NC(=O)c1c(Cl)cccc1Cl ?
RESULT: FALSE

QUERY: Hi team, can someone confirm the assay call for CC=CC(=O)C1=C(C)C=CCC1(C)C ?
RESULT: FALSE

* * *

# method: ATG_NRF2_ARE_CIS: Attagene CIS-FACTORIAL HepG2 Assay for human Nuclear Factor Erythroid 2 Related Factor 2 (NFR2) response to Antioxidant Response Elements (ARE) (AID 2282992)
# assay conditions: HepG2 Attagene ARE/NRF2 reporter, transcription factor activity; actives raise or lower the signal
The source made the active and inactive calls. Rule for the calls: active = hit-call score of the fitted dose curve at least 0.9, where 1 is the maximum; inactive = score below 0.9.
Respond with a class label; see label 1 for active, label 0 for inactive

Check out these entries, answers already filled in.
>>> qualitative_label("CC1(C)[C@H](C=C(Cl)Cl)[C@H]1C(=O)OCc1cccc(Oc2ccccc2)c1")
"label 0"
>>> qualitative_label("CC(C)(C)c1cc(CCC(=O)OCCSCCOC(=O)CCc2cc(C(C)(C)C)c(O)c(C(C)(C)C)c2)cc(C(C)(C)C)c1O")
"label 0"
>>> qualitative_label("CCC(=O)OC(C)(C)C1CC=C(C)CC1 (centres undefined)")
"label 1"

QUERY: Recorded test outcome, item CCOC(=O)COC(=O)c1ccccc1C(=O)OCC
RESULT: label 0

QUERY: For NC(=O)NC(N)=O , what call appears in the results of this test?
RESULT: label 0

QUERY: # fetch the recorded call for CCCCCCOc1ccc(O)cc1 here
RESULT: label 1

QUERY: # outcome recorded in this test, key = NC(=O)c1c(Cl)cccc1Cl
RESULT: label 0

QUERY: For CCCCOCCOC(=O)c1ccccc1C(=O)OCCOCCCC , which call appears in the assay record?
RESULT: label 1

QUERY: Entry CCCCOCCOCCOCCO : call = ?
RESULT: label 0

QUERY: // outcome(item) with item = COC(=O)c1cccc(C(=O)OC)c1
RESULT: label 1

QUERY: Could you please tell me the result logged for CCCC[N+](C)(CCCC)CCCC in this assay?
RESULT: label 0

QUERY: Which outcome was entered for the compound CCCCOCCOCCO in this test?
RESULT: label 0

QUERY: Which outcome did this test record for the compound CCCCCCCCCCO[C@@H]1O[C@H](CO)[C@@H](O)[C@H](O)[C@H]1O ?
RESULT: label 1

QUERY: Hi, sorry to bother you, what did the test record for C=C(C)C(=O)OCCC(C)OC(=O)C(=C)C (centres undefined) ?
RESULT: label 0

QUERY: Returns: the outcome recorded for c1ccc(Cc2ccccc2)cc1 in this assay.
RESULT: label 0

QUERY: Fill in: this test's call for CCCCCCCCCCCCOC(C)=O is ___
RESULT: label 0

QUERY: Entry CC(C)C(=O)c1ccccc1 : call = ?
RESULT: label 0

* * *

# Read-out: Interleukin-8 (IL8), CXCL8 (gene 3576)
# method: BSK_hDFCGF_IL8: BioMAP Diversity Plus: hDFCGF Assay for Interleukin-8 (IL8) Biomarker Activity (AID 2283058)
# assay conditions: primary human foreskin fibroblasts; actives raise or lower the signal
Calls of active or inactive are those of the source. The calls were made as follows: active = hit-call score of the fitted dose curve at least 0.9, where 1 is the maximum; inactive = score below 0.9.
Your reply should match one of these outcome classes. active, inactive

Some entries whose results are on file:
>>> qualitative_label("CCCO[Si](OCCC)(OCCC)OCCC")
"inactive"
>>> qualitative_label("C[C@]12CC[C@@H]3c4ccc(O)cc4CC[C@H]3[C@@H]1CC[C@@H]2O")
"inactive"
>>> qualitative_label("CC(C)(C)c1cccc(O)c1")
"inactive"
>>> qualitative_label("C=C1CC/C=C(\\C)CC[C@@H]2[C@@H]1CC2(C)C")
"active"
>>> qualitative_label("O=C(c1ccc(OCCN2CCCCC2)cc1)c1c(-c2ccc(O)cc2)sc2cc(O)ccc12")
"active"
>>> qualitative_label("NC(=O)c1c(Cl)cccc1Cl")
"inactive"

QUERY: Record lookup: outcome of this test for CCC(=O)OCC=Cc1ccccc1 ?
RESULT: inactive

QUERY: Outcome logged for C=C(F)C(=O)OC(C(F)(F)F)C(F)(F)F in this assay:
RESULT: inactive

QUERY: Test call, this compound: CC1(C)[C@H](C=C(Cl)Cl)[C@H]1C(=O)OCc1cccc(Oc2ccccc2)c1
RESULT: inactive

QUERY: What was the test verdict on CC=CC(=O)C1=C(C)C=CCC1(C)C ?
RESULT: inactive
